Values compiled from patent US5639950A.

# target_desc: wild-type E. coli gamma-GK (Escherichia coli, UniProt P0A7B5)
# Sequence (P0A7B5 whole entry): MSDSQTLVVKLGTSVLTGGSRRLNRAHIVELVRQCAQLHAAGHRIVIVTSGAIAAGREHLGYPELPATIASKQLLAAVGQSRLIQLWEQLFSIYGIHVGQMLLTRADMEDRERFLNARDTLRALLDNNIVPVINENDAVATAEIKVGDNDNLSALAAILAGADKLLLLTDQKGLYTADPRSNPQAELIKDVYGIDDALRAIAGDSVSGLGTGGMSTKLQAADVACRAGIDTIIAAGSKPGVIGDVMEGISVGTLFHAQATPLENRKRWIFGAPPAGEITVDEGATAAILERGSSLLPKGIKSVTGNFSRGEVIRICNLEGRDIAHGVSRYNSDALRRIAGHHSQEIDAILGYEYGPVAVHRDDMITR
pIC50: −log10 of the molar value.
assay_readout: pIC50

chemical_structure: O=C(O)[C@@H]1CCCN1
readout_value: 3.70
